Could you please report measured log k′ for the items listed next?
- experimentalDetails: Hydrophobicity by reverse phase HPLC (log k′, log k′w)
- Format: physicochemical
- appliedConditions: mobile phase MeOH/H2O 70/30, 200–220 bar
Please state the value as a number alone, without comment.

Query (compound): CC(C)(CSCCC(F)(F)C(F)(F)C(F)(F)C(F)(F)C(F)(F)C(F)(F)F)/[N+]([O-])=C/c1ccc(CNC(=O)C(O)[C@H](O)[C@H](O[C@@H]2OC(CO)[C@H](O)[C@H](O)C2O)C(O)CO)cc1 (some centres unmarked) ; field requested: log k′
0.8047

Query (compound): CC(C)(CNC(=O)CCC(F)(F)C(F)(F)C(F)(F)C(F)(F)C(F)(F)C(F)(F)F)/[N+]([O-])=C/c1ccc(CNC(=O)C(O)[C@H](O)[C@H](O[C@@H]2OC(CO)[C@H](O)[C@H](O)C2O)C(O)CO)cc1 (some centres unmarked) ; field requested: log k′
0.3394

Query (compound): CCCCCCCCSCC(C)(C)/[N+]([O-])=C/c1ccc(CNC(=O)C(O)[C@H](O)[C@H](O[C@@H]2OC(CO)[C@H](O)[C@H](O)C2O)C(O)CO)cc1 (some centres unmarked) ; field requested: log k′
0.6676

Query (compound): CC(C)(C)[N+]([O-])=Cc1ccccc1 ; field requested: log k′
−0.2711

Query (compound): CCCCCCCC(=O)NCC(C)(C)/[N+]([O-])=C/c1ccc(CNC(=O)C(O)[C@H](O)[C@H](O[C@@H]2OC(CO)[C@H](O)[C@H](O)C2O)C(O)CO)cc1 (some centres unmarked) ; field requested: log k′
−0.2624

* * *

Could you please report measured % contractile inactivity for the items listed next?
- Tested on: nerve-muscle cocultures
- experimentalDetails: Neuroprotective efficacy on nerve-muscle cocultures after H2O2 poisoning: contractile activity of the muscle fibers
- Format: cell-based
- appliedConditions: 200 μM; 48 h after poisoning with 800 μM H2O2
- Procedure: b—Assessing the Neuroprotective Efficacy on Nerve-Muscle Cocultures The protective effect of these amphiphilic nitrones was assessed on nerve-muscle cocultures following poisoning with hydrogen peroxide for 30 min. The human muscle cells, derived from samples of healthy striated muscles, are isolated by migration of satellite cells into an appropriate culture medium. These cells fuse to form […] muscle fibers in the culture medium. […]
Express the result in % but write the number alone.

Quick check: % contractile inactivity on nerve-muscle cocultures, item CC(C)(CSCCC(F)(F)C(F)(F)C(F)(F)C(F)(F)C(F)(F)C(F)(F)F)/[N+]([O-])=C/c1ccc(CNC(=O)C(O)[C@H](O)[C@H](O[C@@H]2OC(CO)[C@H](O)[C@H](O)C2O)C(O)CO)cc1 (some centres unmarked) ?
33.3

Quick check: % contractile inactivity on nerve-muscle cocultures, item CCCCCCCCSCC(C)(C)/[N+]([O-])=C/c1ccc(CNC(=O)C(O)[C@H](O)[C@H](O[C@@H]2OC(CO)[C@H](O)[C@H](O)C2O)C(O)CO)cc1 (some centres unmarked) ?
100

Quick check: % contractile inactivity on nerve-muscle cocultures, item CC(C)(CNC(=O)CCC(F)(F)C(F)(F)C(F)(F)C(F)(F)C(F)(F)C(F)(F)F)/[N+]([O-])=C/c1ccc(CNC(=O)C(O)[C@H](O)[C@H](O[C@@H]2OC(CO)[C@H](O)[C@H](O)C2O)C(O)CO)cc1 (some centres unmarked) ?
100

Quick check: % contractile inactivity on nerve-muscle cocultures, item CC(C)(C)[N+]([O-])=Cc1ccccc1 ?
100

Quick check: % contractile inactivity on nerve-muscle cocultures, item CCCCCCCC(=O)NCC(C)(C)/[N+]([O-])=C/c1ccc(CNC(=O)C(O)[C@H](O)[C@H](O[C@@H]2OC(CO)[C@H](O)[C@H](O)C2O)C(O)CO)cc1 (some centres unmarked) ?
0

* * *

- Test system: nerve-muscle cocultures
- experimentalDetails: Neuroprotective efficacy on nerve-muscle cocultures after H2O2 poisoning: contractile activity of the muscle fibers
- Format: cell-based
- appliedConditions: 100 μM; 48 h after poisoning with 800 μM H2O2
metricName: % contractile inactivity (%)
Express the result in % but write the number alone.

Query (compound): CCCCCCCC(=O)NCC(C)(C)/[N+]([O-])=C/c1ccc(CNC(=O)C(O)[C@H](O)[C@H](O[C@@H]2OC(CO)[C@H](O)[C@H](O)C2O)C(O)CO)cc1 (stereo partly shown) [A1] ; field requested: % contractile inactivity
0

Query (compound): CCCCCCCCSCC(C)(C)/[N+]([O-])=C/c1ccc(CNC(=O)C(O)[C@H](O)[C@H](O[C@@H]2OC(CO)[C@H](O)[C@H](O)C2O)C(O)CO)cc1 (stereo partly shown) [A2] ; field requested: % contractile inactivity
100

Query (compound): CC(C)(CSCCC(F)(F)C(F)(F)C(F)(F)C(F)(F)C(F)(F)C(F)(F)F)/[N+]([O-])=C/c1ccc(CNC(=O)C(O)[C@H](O)[C@H](O[C@@H]2OC(CO)[C@H](O)[C@H](O)C2O)C(O)CO)cc1 (stereo partly shown) [A3] ; field requested: % contractile inactivity
0

Query (compound): CC(C)(CNC(=O)CCC(F)(F)C(F)(F)C(F)(F)C(F)(F)C(F)(F)C(F)(F)F)/[N+]([O-])=C/c1ccc(CNC(=O)C(O)[C@H](O)[C@H](O[C@@H]2OC(CO)[C@H](O)[C@H](O)C2O)C(O)CO)cc1 (stereo partly shown) [A4] ; field requested: % contractile inactivity
33.3
